- Tested on: HEK-CMV-Luc2-Hygro cells
- test.description: High-throughput genome-wide siRNA screen and validation screen for luciferase expression
- Assay type: cell-based, human
- measurement.context: Table 4; primary screen, 72 h, negative control = 100%
Form field: per cell luciferase yield (%) (one value per entry).
observed.property: per cell luciferase yield (%)

substance | result
136 (AGGUUACAGAGGACUCAGATT; chemistry not given here; listed as Homo sapiens) [compound 136] | 299.886%
112 (GUUUCAUCUGGGUUCGCUATT; chemistry not given here; listed as Homo sapiens) [compound 112] | 233.649%
185 (GAAGAAGACUCUGUACUCATT; chemistry not given here; listed as Homo sapiens) [compound 185] | 215.853%
158 (CUUCGACAGUACUUCCGGATT; chemistry not given here; listed as Homo sapiens) [compound 158] | 161.613%
161 (GCAGUGGACAUAGAAGAGATT; chemistry not given here; listed as Homo sapiens) [compound 161] | 140.658%
200 (GCAACAGAAUCGAGCAAGATT; chemistry not given here; listed as Homo sapiens) [compound 200] | 154.286%

Just for reference, patent US20160319277A1 is where these values come from.
